Listing of entries alongside the reported RAMPO Score.
- target-or-system: T1, His-tagged P3028 (human, also: His tag, length and end not given here)
- T1 construct: in solution at 0.5 ug/mL, detected with mouse anti-His antibody and rabbit anti-mouse peroxidase (rampo); also called PGE73; His-tag-P3028; not shown: His tag
- T1 peptide: VFDEFKPLVEEPQNLIK
- experimental-details: PEPSCAN ELISA, peptide on chip;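 further: binding detected by peroxidase ELISA with ABTS, OD405 colour imaged by CCD camera before and after staining, raw OD405 reported as rampo units, air-bubble wells scored 0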
Ends that are not written are not given here.
A complete answer gives the number followed by the unit.

Would you please look over these solved cases?
binder: KKLDTFFVKLSLPTER [SEQ ID NO 369]
RAMPO Score: 696 rampo units
--
binder: KKLDMFFVKLSLFTER [SEQ ID NO 305]
RAMPO Score: 475 rampo units
--
binder: KKLDTFFVKLSLFMER [SEQ ID NO 381]
RAMPO Score: 501 rampo units

As a next step, examine the binder that follows.
get_value(item= KKFDTFFVKLSLFTER [SEQ ID NO 286] , readout=RAMPO Score) returns 393 rampo units
